Test system: MIA PaCa-2 cells
measurement-protocol: Gemcitabine Combination Cell Assay (Cell Titer Glo)
Assay type: cell-based
study-conditions: approximate concentration of Chk1 inhibitor that results in a two-fold reduction in the IC50 of gemcitabine alone, MIA PaCa-2 cells, 72 h
Counter-ions that a name gives are not always drawn.
endpoint-name: 2xLS (nM)
Express the result in nM but write the number alone.

The reported value for COc1cc(C2CCNCC2)ccc1-c1cc(Nc2ccc(C#N)cn2)n[nH]1 in terms of 2xLS is 300

Form: molecule = COc1cc(NCC2CCN(C)CC2)ccc1-c1cc(Nc2cnc(C#N)cn2)n[nH]1 [Example 107, hydrochloride] ; 2xLS = 3

Item: COc1cc(CNC(C)C)ccc1-c1cc(Nc2cnc(C#N)cn2)n[nH]1 | 2xLS: 3

# 2xLS (molecule: CCN1CCO[C@H](c2ccc(-c3cc(Nc4cnc(C#N)cn4)n[nH]3)c(OC)c2)C1 ) is 3

Memo: CC(C)Oc1cc(C2CCNCC2)ccc1-c1cc(Nc2cnc(C#N)cn2)n[nH]1 , reported 2xLS: 100

Sure, the documented 2xLS for COc1cc(C2CCNCC2)c(Cl)cc1-c1cc(Nc2cnc(C#N)cn2)n[nH]1 is 100

Please fill in: 2xLS reported for CCN1CCO[C@@H](c2ccc(-c3cc(Nc4cnc(C#N)cn4)n[nH]3)c(OC)c2)C1 = 3

molecule N#Cc1cnc(Nc2cc(-c3ccc(C4CCNCC4)cc3F)[nH]n2)cn1 , 2xLS observed: 300

The molecule listed as COc1cc(N2CCN(CC(C)C)CC2)ccc1-c1cc(Nc2cnc(C#N)cn2)n[nH]1 has a reported 2xLS of 3

Entry COc1cc(OCc2cocn2)ccc1-c1cc(Nc2cnc(C#N)cn2)n[nH]1 , 2xLS reported as 30

Entry COc1cc(N2CCNCC2)cc(OC)c1-c1cc(Nc2cnc(C#N)cn2)n[nH]1 — recorded 2xLS = 3

Query CN1CCC(c2ccc(-c3cc(Nc4cnc(C#N)cn4)n[nH]3)cc2)CC1 yields 2xLS of 300

Reported 2xLS ( CCNCc1ccc(-c2cc(Nc3cnc(C#N)cn3)n[nH]2)c(OC)c1 ) = 10

Record summary for COc1cc(C2CCN(CCF)CC2)ccc1-c1cc(Nc2cnc(C#N)cn2)n[nH]1 : reported 2xLS = 3

The recorded 2xLS for entry COc1cc(NC2CCN(C)CC2)ccc1-c1cc(Nc2cnc(C#N)cn2)n[nH]1 equals 3

Sure, the documented 2xLS for COc1cc([C@@H]2CN(C(C)C)CCO2)ccc1-c1cc(Nc2cnc(C#N)cn2)n[nH]1 is 10

Value of 2xLS reported for the molecule COc1cc([C@H]2CN(C)CCO2)ccc1-c1cc(Nc2cnc(C#N)cn2)n[nH]1 is 10

# molecule COc1cc([C@@H]2CN(C)CCO2)ccc1-c1cc(Nc2cnc(C#N)cn2)n[nH]1 [Example 117, hydrochloride] ; its 2xLS = 10

Recorded result, COc1cc(O[C@H]2CCN(C(C)C)C2)ccc1-c1cc(Nc2cnc(C#N)cn2)n[nH]1 , 2xLS: 3

The measured 2xLS associated with COc1cc(COC2CCN(C)CC2)ccc1-c1cc(Nc2cnc(C#N)cn2)n[nH]1 reads 3

Value of measured 2xLS for the entry CCN1CCC[C@@H]1COc1ccc(-c2cc(Nc3cnc(C#N)cn3)n[nH]2)c(OC)c1 : 3

Sample COc1cc(C2CCN(C)CC2)c(F)cc1-c1cc(Nc2cnc(C#N)cn2)n[nH]1 ; 2xLS observed: 30

The molecule identified as COc1cc(C2CCN(C(C)C)CC2F)ccc1-c1cc(Nc2cnc(C#N)cn2)n[nH]1 (centres unmarked) registered its 2xLS at 10
